The entries below are paired with their reported PBM binding z-score.
# Test system: PPARg DBDmut IVT, anti-PPARg (DBD mutation: PPARg1 K132A/R137A, NR concentration 270 nM)
# method notes: PBM binding z-score (relative to random genomic background probes); higher = stronger binding; sequences stand for … in GC…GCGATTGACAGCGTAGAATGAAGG
measured attribute: PBM binding z-score

residues=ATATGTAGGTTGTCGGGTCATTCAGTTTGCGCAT measured_attribute="PBM binding z-score" assay_value=1.67
residues=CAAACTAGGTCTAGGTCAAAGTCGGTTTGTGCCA measured_attribute="PBM binding z-score" assay_value=0.991
residues=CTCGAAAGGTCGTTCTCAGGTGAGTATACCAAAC measured_attribute="PBM binding z-score" assay_value=0.753
residues=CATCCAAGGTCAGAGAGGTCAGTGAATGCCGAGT measured_attribute="PBM binding z-score" assay_value=-0.591
residues=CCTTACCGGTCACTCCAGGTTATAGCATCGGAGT measured_attribute="PBM binding z-score" assay_value=-0.042
residues=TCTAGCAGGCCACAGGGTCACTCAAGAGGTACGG measured_attribute="PBM binding z-score" assay_value=-1.16
residues=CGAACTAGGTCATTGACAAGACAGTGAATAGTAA measured_attribute="PBM binding z-score" assay_value=1.15
residues=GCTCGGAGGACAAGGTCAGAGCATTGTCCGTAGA measured_attribute="PBM binding z-score" assay_value=-0.733
residues=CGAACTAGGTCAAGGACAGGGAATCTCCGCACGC measured_attribute="PBM binding z-score" assay_value=0.477
residues=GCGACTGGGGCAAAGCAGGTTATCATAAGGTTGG measured_attribute="PBM binding z-score" assay_value=-0.693
residues=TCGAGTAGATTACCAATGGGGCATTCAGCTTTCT measured_attribute="PBM binding z-score" assay_value=-0.114
residues=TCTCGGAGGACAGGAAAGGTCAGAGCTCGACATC measured_attribute="PBM binding z-score" assay_value=-0.498
residues=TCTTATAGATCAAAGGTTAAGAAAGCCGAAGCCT measured_attribute="PBM binding z-score" assay_value=0.755
residues=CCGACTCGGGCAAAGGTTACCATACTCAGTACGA measured_attribute="PBM binding z-score" assay_value=-0.188
residues=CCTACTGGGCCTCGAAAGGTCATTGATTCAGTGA measured_attribute="PBM binding z-score" assay_value=-0.00532
residues=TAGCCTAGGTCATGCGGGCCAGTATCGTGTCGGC measured_attribute="PBM binding z-score" assay_value=-0.59
residues=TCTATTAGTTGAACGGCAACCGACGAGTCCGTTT measured_attribute="PBM binding z-score" assay_value=0.73
residues=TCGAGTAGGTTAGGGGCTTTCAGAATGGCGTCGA measured_attribute="PBM binding z-score" assay_value=-0.419
residues=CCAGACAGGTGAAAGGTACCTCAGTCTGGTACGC measured_attribute="PBM binding z-score" assay_value=-0.542
residues=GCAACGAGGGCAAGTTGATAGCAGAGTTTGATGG measured_attribute="PBM binding z-score" assay_value=-0.32
residues=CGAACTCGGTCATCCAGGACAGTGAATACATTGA measured_attribute="PBM binding z-score" assay_value=0.0941
residues=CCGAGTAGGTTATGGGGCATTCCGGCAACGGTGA measured_attribute="PBM binding z-score" assay_value=-0.0547
residues=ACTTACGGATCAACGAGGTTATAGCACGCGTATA measured_attribute="PBM binding z-score" assay_value=0.952
residues=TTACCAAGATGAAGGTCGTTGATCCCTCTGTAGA measured_attribute="PBM binding z-score" assay_value=0.663
residues=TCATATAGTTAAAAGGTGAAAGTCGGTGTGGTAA measured_attribute="PBM binding z-score" assay_value=0.7
residues=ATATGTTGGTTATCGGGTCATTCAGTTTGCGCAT measured_attribute="PBM binding z-score" assay_value=2.49
residues=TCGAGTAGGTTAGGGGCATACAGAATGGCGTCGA measured_attribute="PBM binding z-score" assay_value=-1.13
residues=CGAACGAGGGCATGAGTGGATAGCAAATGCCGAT measured_attribute="PBM binding z-score" assay_value=-0.831
residues=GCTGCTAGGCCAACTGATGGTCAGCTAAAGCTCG measured_attribute="PBM binding z-score" assay_value=-1.3
residues=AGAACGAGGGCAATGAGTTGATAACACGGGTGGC measured_attribute="PBM binding z-score" assay_value=0.293
residues=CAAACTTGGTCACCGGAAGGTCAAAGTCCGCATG measured_attribute="PBM binding z-score" assay_value=1.15
residues=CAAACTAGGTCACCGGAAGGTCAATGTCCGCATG measured_attribute="PBM binding z-score" assay_value=1.35
residues=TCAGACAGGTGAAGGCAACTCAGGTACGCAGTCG measured_attribute="PBM binding z-score" assay_value=-0.648
residues=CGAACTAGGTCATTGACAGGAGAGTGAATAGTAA measured_attribute="PBM binding z-score" assay_value=3.6
residues=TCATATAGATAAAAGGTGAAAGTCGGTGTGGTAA measured_attribute="PBM binding z-score" assay_value=0.805
residues=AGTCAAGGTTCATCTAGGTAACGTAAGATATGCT measured_attribute="PBM binding z-score" assay_value=1.06
residues=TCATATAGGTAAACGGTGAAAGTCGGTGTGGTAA measured_attribute="PBM binding z-score" assay_value=0.702
residues=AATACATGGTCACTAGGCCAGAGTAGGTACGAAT measured_attribute="PBM binding z-score" assay_value=1.09
residues=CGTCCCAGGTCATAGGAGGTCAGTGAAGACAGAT measured_attribute="PBM binding z-score" assay_value=0.281
residues=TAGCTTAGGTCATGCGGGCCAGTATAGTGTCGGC measured_attribute="PBM binding z-score" assay_value=0.321
residues=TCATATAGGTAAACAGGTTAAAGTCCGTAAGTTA measured_attribute="PBM binding z-score" assay_value=1.02
residues=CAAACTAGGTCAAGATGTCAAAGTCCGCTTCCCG measured_attribute="PBM binding z-score" assay_value=1.01
residues=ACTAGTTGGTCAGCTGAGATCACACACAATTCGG measured_attribute="PBM binding z-score" assay_value=0.509
residues=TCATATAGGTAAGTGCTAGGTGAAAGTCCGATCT measured_attribute="PBM binding z-score" assay_value=0.697
residues=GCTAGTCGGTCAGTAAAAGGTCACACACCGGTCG measured_attribute="PBM binding z-score" assay_value=0.0206
residues=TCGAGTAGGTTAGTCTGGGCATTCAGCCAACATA measured_attribute="PBM binding z-score" assay_value=-0.623
residues=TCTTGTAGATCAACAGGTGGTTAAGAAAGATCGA measured_attribute="PBM binding z-score" assay_value=0.677
residues=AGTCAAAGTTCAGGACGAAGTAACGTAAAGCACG measured_attribute="PBM binding z-score" assay_value=0.688
residues=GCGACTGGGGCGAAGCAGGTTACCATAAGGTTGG measured_attribute="PBM binding z-score" assay_value=-1.09
residues=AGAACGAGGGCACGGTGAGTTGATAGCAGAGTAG measured_attribute="PBM binding z-score" assay_value=0.552
residues=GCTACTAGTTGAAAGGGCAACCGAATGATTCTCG measured_attribute="PBM binding z-score" assay_value=-0.547

###

# System: PPARg DBDmut IVT, anti-PPARg (DBD mutation: PPARg1 K132A/R137A, NR concentration 270 nM)
# method notes: PBM binding z-score (relative to random genomic background probes); higher = stronger binding; sequences stand for … in GC…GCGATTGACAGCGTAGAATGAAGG
measured attribute: PBM binding z-score

residues=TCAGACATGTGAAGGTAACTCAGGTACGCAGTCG assay_value=0.0128
residues=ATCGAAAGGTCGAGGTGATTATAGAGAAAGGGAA assay_value=1.21
residues=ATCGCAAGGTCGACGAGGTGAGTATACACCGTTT assay_value=0.00511
residues=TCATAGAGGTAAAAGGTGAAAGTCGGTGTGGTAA assay_value=-0.0644
residues=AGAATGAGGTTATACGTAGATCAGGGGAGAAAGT assay_value=0.577
residues=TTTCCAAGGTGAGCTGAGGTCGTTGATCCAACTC assay_value=0.546
residues=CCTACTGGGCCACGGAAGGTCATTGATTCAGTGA assay_value=-0.824
residues=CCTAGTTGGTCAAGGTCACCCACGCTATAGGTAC assay_value=1.37
residues=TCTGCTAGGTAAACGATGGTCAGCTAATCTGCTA assay_value=-0.397
residues=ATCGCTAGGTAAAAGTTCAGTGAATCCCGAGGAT assay_value=-0.441
residues=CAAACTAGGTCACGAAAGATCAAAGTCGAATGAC assay_value=5.17
residues=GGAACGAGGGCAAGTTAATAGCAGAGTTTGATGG assay_value=-0.167
residues=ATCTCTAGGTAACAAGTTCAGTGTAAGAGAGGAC assay_value=1.82
residues=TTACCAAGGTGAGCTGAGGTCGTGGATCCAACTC assay_value=-0.109
residues=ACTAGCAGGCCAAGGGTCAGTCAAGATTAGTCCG assay_value=-0.926
residues=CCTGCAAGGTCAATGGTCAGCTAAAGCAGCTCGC assay_value=-1.15
residues=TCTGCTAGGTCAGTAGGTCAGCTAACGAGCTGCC assay_value=0.0507
residues=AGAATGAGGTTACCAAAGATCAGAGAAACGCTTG assay_value=0.709
residues=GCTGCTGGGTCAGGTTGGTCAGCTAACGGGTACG assay_value=-0.347
residues=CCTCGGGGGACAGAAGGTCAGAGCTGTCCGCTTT assay_value=-0.683
residues=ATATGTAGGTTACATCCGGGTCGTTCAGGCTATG assay_value=1.61
residues=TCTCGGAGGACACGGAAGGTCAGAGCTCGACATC assay_value=-0.403
residues=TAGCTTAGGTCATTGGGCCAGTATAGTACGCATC assay_value=0.108
residues=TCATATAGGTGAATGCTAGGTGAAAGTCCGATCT assay_value=1.82
residues=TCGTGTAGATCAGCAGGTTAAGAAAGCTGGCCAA assay_value=-0.881
residues=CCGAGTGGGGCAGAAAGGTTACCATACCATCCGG assay_value=-1.29
